Would you mind telling me the reported inhibition of growth at 0.05 µg/mL of each entry?
- Test system: Leptosphaeria nodorum (LEPTNO)
- test method notes: In vitro fungitoxicity of hydrazones with and without copper towards Leptosphaeria nodorum (Example 26)
- Format: cell-based
- stated conditions: Parastagonospora nodorum, 72 h, copper-minus medium; test compound Concn. 0.05 μg/mL; 72 h at 25° C.; read-out: LEPTNO % Inhn. Minus Copper Observed
The figure you give is taken to be in %; do not add the unit.

### Prompt Please indicate inhibition of growth at 0.05 µg/mL recorded for COc1ccc(C(=O)N/N=C(\C)c2cccc(OC)c2O)cc1 [Example 464]
### Response 6.7

### Prompt Please indicate inhibition of growth at 0.05 µg/mL recorded for C/C(=N\NC(=O)c1ccccc1O)c1cccc([N+](=O)[O-])c1O [Example 525]
### Response 5.4

### Prompt Please indicate inhibition of growth at 0.05 µg/mL recorded for O=C(N/N=C/c1ccc(Cl)c(Cl)c1O)c1ccc(Cl)cc1 [Example 359]
### Response 41.4

### Prompt Please indicate inhibition of growth at 0.05 µg/mL recorded for O=C(N/N=C/c1ccc(Cl)cc1O)c1ccc(Cl)cc1 [Example 392]
### Response 15.8

### Prompt Please indicate inhibition of growth at 0.05 µg/mL recorded for C/C(=N\NC(=O)c1ccc(C(F)(F)F)cc1)c1cc(F)cc(F)c1O [Example 581]
### Response 13.6

### Prompt Please indicate inhibition of growth at 0.05 µg/mL recorded for C/C(=N\NC(=O)c1ccc(C(F)(F)F)cc1)c1ccc(Cl)cc1O [Example 461]
### Response 3.4

### Prompt Please indicate inhibition of growth at 0.05 µg/mL recorded for C/C(=N\NC(=O)c1cc2ccccc2cc1O)c1cc(Cl)cc(Cl)c1O [Example 564]
### Response 17.4

### Prompt Please indicate inhibition of growth at 0.05 µg/mL recorded for COc1ccc(/C(C)=N/NC(=O)c2ccccc2C)c(O)c1OC [Example 552]
### Response 0

### Prompt Please indicate inhibition of growth at 0.05 µg/mL recorded for C/C(=N\NC(=O)c1ccccc1O)c1ccc(Cl)cc1O [Example 463]
### Response 5.1
